- System: LoVo-Dox
- assay: SRB colorimetric cell growth inhibition assay, LoVo-Dox (MDR)
- Type: cell-based
- stated conditions: Homo sapiens, read-out: LC50 LOVO-DOX, LOVO-DOX; LC=cell killing (cytotoxic effect)
Exercise: state measured CC50 for each of the compounds provided.
Give bare numbers, in µM.

Here are 3 compounds together with their reported answers.
query: For the record COc1cc(-c2c3n(c4c(=O)oc5cc(OC(=O)[C@@H](N)CO)c(OC)cc5c24)CCc2c-3cc(OC)c(OC)c2OC(=O)[C@@H](N)CO)ccc1OC(=O)[C@@H](N)CO [Compound 59] , what value of CC50 is listed for LoVo-Dox?
result: 4.56

query: Consider next the compound COc1cc(-c2c3n(c4c(=O)oc5cc(OC(=O)[C@H](C)NC(=O)OC(C)(C)C)c(OC)cc5c24)CCc2c-3cc(OC)c(OC)c2OC(=O)[C@H](C)NC(=O)OC(C)(C)C)ccc1OC(=O)[C@H](C)NC(=O)OC(C)(C)C [Compound 46] in the same way.
result: 9.57

query: Consider next the compound COc1cc(-c2c3c4cc(OC)c(OC(=O)[C@@H](N)CCCCNC(=O)OCc5ccccc5)cc4oc(=O)c3n3ccc4c(OC(=O)[C@@H](N)CCCCNC(=O)OCc5ccccc5)c(OC)c(OC)cc4c23)ccc1OC(=O)[C@@H](N)CCCCNC(=O)OCc1ccccc1 [Compound 44] in the same way.
result: 7.6

From here, focus on the item given below.
query: For the record COc1cc(-c2c3c4cc(OC)c(OC(=O)[C@H](N)C(C)C)cc4oc(=O)c3n3ccc4c(OC(=O)[C@H](N)C(C)C)c(OC)c(OC)cc4c23)ccc1OC(=O)[C@H](N)C(C)C [Compound 43] , what value of CC50 is listed for LoVo-Dox?
result: 9.84

---

Exercise: state measured IC (TGI) for each of the molecules provided.
- Tested on: HT-29
- assay: SRB colorimetric cell growth inhibition assay, HT-29
- Type: cell-based
- stated conditions: Homo sapiens, HT-29, HT-29; total growth inhibition (cytostatic effect); read-out: TGI HT-29
Give bare numbers, in µM.

Here are 5 molecules together with their reported answers.
query: # IC (TGI) lookup, item `COc1cc(-c2c3c4cc(OC)c(OC(=O)[C@@H](N)CO)cc4oc(=O)c3n3ccc4c(OC(=O)[C@@H](N)CO)c(OC)c(OC)cc4c23)ccc1OC(=O)[C@@H](N)CO`
result: 3.28

query: Consider next the molecule `COc1cc(-c2c3c4cc(OC)c(OC(=O)CCC5CCCCC5)cc4oc(=O)c3n3ccc4cc(OC(=O)CCC5CCCCC5)c(OC)cc4c23)ccc1OC(=O)CCC1CCCCC1` in the same way.
result: 0.841

query: Consider next the molecule `COc1cc(-c2c3c4cc(OC)c(OC(C)C)cc4oc(=O)c3n3ccc4c(OC(C)C)c(OC)c(OC)cc4c23)ccc1OC(C)C` in the same way.
result: 2.17

query: Consider next the molecule `COc1cc(-c2c3c4cc(OC)c(OC(=O)C[C@H](N)C(C)C)cc4oc(=O)c3n3ccc4cc(OC(=O)C[C@H](N)C(C)C)c(OC)cc4c23)ccc1OC(=O)C[C@H](N)C(C)C` in the same way.
result: 10.5

query: Consider next the molecule `COc1cc2c(cc1O)CCn1c-2c(Br)c2c3cc(OC)c(O)cc3oc(=O)c21` in the same way.
result: 21.8

Hey, can you go through the list below and give me IC (TGI) for every item?
1. COc1cc(-c2c3c4cc(OC)c(OC(=O)CCc5ccccc5)cc4oc(=O)c3n3ccc4cc(OC(=O)CCc5ccccc5)c(OC)cc4c23)ccc1OC(=O)CCc1ccccc1
2. COc1cc(-c2c3c4cc(OC)c(OC(=O)[C@@H](N)CC(C)C)cc4oc(=O)c3n3ccc4cc(OC(=O)[C@@H](N)CC(C)C)c(OC)cc4c23)ccc1OC(=O)[C@@H](N)CC(C)C
3. COc1cc2c(cc1OC)-c1c(-c3ccc(OC(=O)CCc4ccccc4)c(OC)c3)c3c4cc(OC)c(OC(=O)CCc5ccccc5)cc4oc(=O)c3n1CC2
4. COc1cc(-c2c3c4cc(OC)c(OC(=O)[C@H](C)NC(=O)OC(C)(C)C)cc4oc(=O)c3n3ccc4c(OC(=O)[C@H](C)NC(=O)OC(C)(C)C)c(OC)c(OC)cc4c23)ccc1OC(=O)[C@H](C)NC(=O)OC(C)(C)C
5. COc1cc(-c2c3n(c4c(=O)oc5cc(O)c(OC)cc5c24)CCc2c-3cc(OC)c(OC)c2O)ccc1O
6. COc1cc2c(cc1O)CCn1c-2cc2c3cc(OC)c(O)cc3oc(=O)c21

result:
1: 11.2; 2: 10.5; 3: 12.8; 4: 9.59; 5: 18.8; 6: 26.4

Hey, can you go through the list below and give me IC (TGI) for every item?
1. COc1cc2ccn3c(c(-c4ccc(OC(=O)[C@@H](N)Cc5ccccc5)c(OC)c4)c4c5cc(OC)c(OC(=O)[C@@H](N)Cc6ccccc6)cc5oc(=O)c43)c2cc1OC
2. COc1cc(-c2c3n(c4c(=O)oc5cc(OC(=O)[C@@H](N)C(C)C)c(OC)cc5c24)CCc2c-3cc(OC)c(OC)c2OC(=O)[C@@H](N)C(C)C)ccc1OC(=O)[C@@H](N)C(C)C
3. CC[C@H](C)[C@H](N)C(=O)Oc1ccc(-c2c3c4cc(OC)c(OC(=O)[C@@H](N)[C@@H](C)CC)cc4oc(=O)c3n3ccc4cc(OC(=O)[C@@H](N)[C@@H](C)CC)c(OC)cc4c23)cc1OC
4. COc1cc2ccn3c(c(-c4ccc(OS(=O)(=O)C(F)(F)F)c(OC)c4)c4c5cc(OC)c(OS(=O)(=O)C(F)(F)F)cc5oc(=O)c43)c2cc1OC
5. COc1cc(-c2c3n(c4c(=O)oc5cc(O)c(OC)cc5c24)CCc2cc(O)c(OC)cc2-3)ccc1O
6. COc1cc(-c2c3c4cc(OC)c(OC(=O)[C@@H](N)Cc5ccccc5)cc4oc(=O)c3n3ccc4c(OC(=O)[C@@H](N)Cc5ccccc5)c(OC)c(OC)cc4c23)ccc1OC(=O)[C@@H](N)Cc1ccccc1
7. COc1cc(-c2c3n(c4c(=O)oc5cc(OC(=O)[C@@H](N)C(C)C)c(OC)cc5c24)CCc2cc(OC(=O)[C@@H](N)C(C)C)c(OC)cc2-3)ccc1OC(=O)[C@@H](N)C(C)C

result:
1. 4.54
2. 3.54
3. 9.99
4. 9.22
5. 19.9
6. 9.26
7. 4.82

Hey, can you go through the list below and give me IC (TGI) for every item?
1. COc1cc(-c2c3c4cc(OC)c(O)cc4oc(=O)c3n3ccc4c(N)cccc4c23)ccc1O
2. COc1cc(-c2c3c4cc(OC)c(OC(=O)CCCCCN)cc4oc(=O)c3n3ccc4cc(OC(=O)CCCCCN)c(OC)cc4c23)ccc1OC(=O)CCCCCN
3. COc1cc(-c2c3n(c4c(=O)[nH]c5cc(O)c(OC)cc5c24)CCc2cc(O)c(OC)cc2-3)ccc1O
4. COc1cc(-c2c3c4cc(OC)c(OC(=O)[C@H](C)NC(=O)[C@H](C)N)cc4oc(=O)c3n3ccc4c(OC(=O)[C@H](C)NC(=O)[C@H](C)N)c(OC)c(OC)cc4c23)ccc1OC(=O)[C@H](C)NC(=O)[C@H](C)N

result:
[21.3, 10.5, 6.03, 3.24]
